Biological target: recombinant human COX-2 (Homo sapiens, UniProt P35354)
Sequence (P35354 18-604): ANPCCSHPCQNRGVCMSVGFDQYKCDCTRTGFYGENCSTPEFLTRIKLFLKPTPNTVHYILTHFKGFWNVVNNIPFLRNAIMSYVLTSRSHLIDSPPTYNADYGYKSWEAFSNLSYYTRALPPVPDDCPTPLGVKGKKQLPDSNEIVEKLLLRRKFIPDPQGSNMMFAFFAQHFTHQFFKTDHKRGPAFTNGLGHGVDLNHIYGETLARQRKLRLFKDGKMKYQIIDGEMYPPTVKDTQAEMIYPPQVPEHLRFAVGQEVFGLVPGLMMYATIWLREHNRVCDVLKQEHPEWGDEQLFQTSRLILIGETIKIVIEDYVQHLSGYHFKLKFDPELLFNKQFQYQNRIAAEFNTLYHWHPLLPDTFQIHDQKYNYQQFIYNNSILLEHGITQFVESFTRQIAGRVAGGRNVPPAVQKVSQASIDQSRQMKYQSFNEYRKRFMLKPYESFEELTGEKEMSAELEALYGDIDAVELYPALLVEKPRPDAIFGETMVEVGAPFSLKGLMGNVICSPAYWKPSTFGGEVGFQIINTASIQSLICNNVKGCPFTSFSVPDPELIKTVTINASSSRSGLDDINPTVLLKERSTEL
Test: COX inhibitor assay (Cayman 700100), COX-2
pIC50: −log10 of the molar value.
Give true (1) when the value for pIC50 is at least 6. Give false (0) when it is less.

Record excerpt, results attached:
Cc1cc(-n2cc(-c3ccc(N)cc3)nn2)n(-c2ccc(S(C)(=O)=O)cc2)n1 [Compound 21]
true (1)
CS(=O)(=O)c1ccc(-n2nc(-c3ccccc3)cc2-n2cc(-c3ccc(F)cc3)nn2)cc1 [Compound 28]
true (1)
Cc1cc(-n2cc(-c3ccccc3)nn2)n(-c2ccc(S(C)(=O)=O)cc2)n1 [Compound 16]
false (0)
COc1ccc(-c2cn(-c3cc(C)nn3-c3ccc(S(C)(=O)=O)cc3)nn2)cc1 [Compound 19]
false (0)

Now consider a different compound.
Q: Could you please find out whether CS(=O)(=O)c1ccc(-n2nc(-c3ccccc3)cc2-n2cc(-c3ccc(N)cc3)nn2)cc1 [Compound 29] has pIC50 that meets 6 or exceeds it?
Result: false (0)
